Origin of values: PubChem BioAssay AID1259321

target: Nuclear receptor subfamily 1 group D member 1 (Homo sapiens) (UniProt P20393); experiment: modulators of Rev-erb alpha DNA binding, dose response, biochemical, FITC-DNA, fluorescence polarization (AID 1259321)
Sequence (P20393 whole entry, looked up): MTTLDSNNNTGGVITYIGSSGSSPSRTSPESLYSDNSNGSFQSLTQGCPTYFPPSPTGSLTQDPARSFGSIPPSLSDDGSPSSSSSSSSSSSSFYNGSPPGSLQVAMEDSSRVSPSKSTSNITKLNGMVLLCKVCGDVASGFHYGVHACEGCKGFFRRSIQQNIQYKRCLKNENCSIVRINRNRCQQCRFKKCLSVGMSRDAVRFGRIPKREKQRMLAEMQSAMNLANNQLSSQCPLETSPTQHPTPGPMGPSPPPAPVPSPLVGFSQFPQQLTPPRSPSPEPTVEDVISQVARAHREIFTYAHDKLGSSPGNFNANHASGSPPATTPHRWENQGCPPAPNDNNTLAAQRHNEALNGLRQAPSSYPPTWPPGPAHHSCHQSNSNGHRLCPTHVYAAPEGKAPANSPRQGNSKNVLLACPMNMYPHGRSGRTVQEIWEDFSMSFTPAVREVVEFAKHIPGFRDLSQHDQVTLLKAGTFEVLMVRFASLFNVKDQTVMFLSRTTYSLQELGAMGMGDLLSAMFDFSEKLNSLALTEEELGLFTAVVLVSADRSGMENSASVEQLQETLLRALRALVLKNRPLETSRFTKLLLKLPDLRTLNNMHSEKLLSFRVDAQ
Active and inactive are the calls of the source.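 How the source made its calls: active means half-maximal concentration for changing protein binding to DNA, from the fitted dose curve, below 10 micromolar; inactive means the rest.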
OBSERVABLE: IC50

Solved entries:
• C=CCn1c(SCC(=O)Nc2cc(C)on2)nc2sc(C)c(C)c2c1=O = 5.14 µM
• COc1ccccc1NC(=O)COC(=O)c1ccc2c(c1)OCCO2 = 1.01 µM
• CCOc1ccccc1NC(=O)CSc1nc(N)c(C#N)cc1C#N = inactive
• Cc1cc(N2CCCC2)ccc1/C=C1\NC(=S)N(C)C1=O = inactive
• Cc1cc(OC(C)C(=O)NCc2cccnc2)c2c(C)c(Cc3ccccc3)c(=O)oc2c1 (stereo unspecified) = inactive

Q: Hello, I am looking for reported IC50 with Nuclear receptor subfamily 1 group D member 1 (Homo sapiens) (UniProt P20393) for Cc1nc(SCC(=O)Nc2ccc(F)cc2)c2oc3ccccc3c2n1 . Could you help?
A: inactive

###

target: Nuclear receptor subfamily 1 group D member 1 (Homo sapiens); experiment: modulators of Rev-erb alpha DNA binding, dose response, biochemical, FITC-DNA, fluorescence polarization (AID 1259321)
Active and inactive are the calls of the source.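 How the source made its calls: active means half-maximal concentration for changing protein binding to DNA, from the fitted dose curve, below 10 micromolar; inactive means the rest.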
OBSERVABLE: IC50

• COc1ccc(-c2cc(C(F)(F)F)c(C#N)c(SCC(=O)Nc3nc(C)co3)n2)cc1 = 3.59 µM
• CC1CCN(Cc2cc(=O)oc3ccc(C(C)C)cc23)CC1 = 9.88 µM
• CC(C)n1cc(/C=C/c2cc[n+](C)cc2)c2ccccc21 = inactive
• CCOc1cccc2sc(NC(=O)c3ccc(Br)s3)nc12 = > 40 µM (inactive)

Q: Need IC50 of CCOC(=O)c1c(C2CC2)csc1NC(=O)COC(=O)c1cnc(Cl)c(Cl)c1 , thanks.
A: inactive

Q: Need IC50 of COc1cc(OC)c(N(C)S(=O)(=O)c2cccc(C(=O)OCc3c(C)noc3C)c2)cc1Cl , thanks.
A: 5.12 µM

###

target: Nuclear receptor subfamily 1 group D member 1 (Homo sapiens) (UniProt P20393); assay: modulators of Rev-erb alpha DNA binding, dose response, biochemical, FITC-DNA, fluorescence polarization (AID 1259321)
Active and inactive are the calls of the source.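 How the source made its calls: active means half-maximal concentration for changing protein binding to DNA, from the fitted dose curve, below 10 micromolar; inactive means the rest.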
OBSERVABLE: IC50

* Cc1cc(C)c(NC(=O)COc2ccccc2C(=O)Nc2ccc3c(c2)oc2ccccc23)c(C)c1 | > 40 µM (inactive)
* Cc1cc(C(F)(F)F)c2c(N)c(C(=O)Nc3cc(C)on3)sc2n1 | inactive
* Cc1nc(SCC(=O)NCc2ccccc2)c2oc3ccccc3c2n1 | 4.18 µM
* Cc1ccc(-n2nc3c(N4CCC(C(=O)NCCc5cccs5)CC4)nnc(C)c3c2C)cc1 | 6.89 µM
* COc1ccc(Br)cc1-c1nc2c(c(=O)[nH]c(=O)n2Cc2ccccc2)n1C | inactive
* CCn1c2ccccc2c2cc(C3C(C#N)=C(C)NC(C)=C3C#N)ccc21 | > 40 µM (inactive)
* CCN1C(=O)C(=CC=CN(C)c2ccccc2)SC1=S | inactive
* COC(=O)c1ccc(Cn2ccc3ccc(-c4ccc5ccn(C(=O)C6CCCCC6)c5c4)cc32)cc1 | 6.33 µM

Shifting focus to the compound that follows.
Q: Need IC50 of CCOC(=O)c1cc2c(=O)c3ccccc3oc2nc1C , thanks.
A: > 40 µM (inactive)

###

target: Nuclear receptor subfamily 1 group D member 1 (Homo sapiens); experiment: modulators of Rev-erb alpha DNA binding, dose response, biochemical, FITC-DNA, fluorescence polarization (AID 1259321)
Calls of active or inactive are those of the source.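 How the source made its calls: active means half-maximal concentration for changing protein binding to DNA, from the fitted dose curve, below 10 micromolar; inactive means the rest.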
OBSERVABLE: IC50

* COc1ccc(-c2nc(N)ncc2Oc2ccccc2Br)c(O)c1 | inactive
* COc1ccc(-c2cc3c(=O)n(CC(=O)Nc4ccc(C(C)=O)cc4)ncn3n2)cc1 | inactive
* Cc1cc(/C=C(/C#N)C(=O)Nc2ccc(Cl)cc2)c(C)n1-c1cccnc1 | 2.66 µM
* CCN1C(=O)/C(=C\N2CCN(c3cccc(Cl)c3)CC2)SC1=S | 8.83 µM
* COc1ccc2c(c1)oc(=O)c1c3ccccc3[nH]c21 | > 40 µM (inactive)

Q: Need IC50 of CCCCOC(=O)CSc1nc(N)c(C#N)c(-c2ccc(OCC)cc2)c1C#N , thanks.
A: inactive

Q: Need IC50 of CCOC(=O)c1sc(NC(=O)c2ccc(S(=O)(=O)N(CC)CC)cc2)nc1C , thanks.
A: inactive

Q: Need IC50 of COc1ccc2[nH]c(C(=O)Nc3ccc(F)cc3Br)cc2c1 , thanks.
A: > 40 µM (inactive)

Q: Need IC50 of CC1CCN(S(=O)(=O)c2ccc3nc(N4CCN(c5ccccc5)CC4)ccc3c2)CC1 , thanks.
A: 8.29 µM

Q: Need IC50 of CC1(C)Cc2c(c(N3CCCC3)nc3sc(C(=O)Nc4ccccc4)c(N)c23)CO1 , thanks.
A: 3.37 µM

Q: Need IC50 of CCOc1cc(N(CC)CC)ccc1/C=C(/C#N)c1nc2ccccc2[nH]1 , thanks.
A: inactive

Q: Need IC50 of O=[N+]([O-])c1ccc(NCc2ccccc2)c2nonc12 , thanks.
A: 1.2 µM

Q: Need IC50 of CCCCCNC(=O)c1c[nH]c2ccc(S(=O)(=O)N3CCC4(CC3)OCCO4)cc2c1=O , thanks.
A: inactive

###

biological target: Nuclear receptor subfamily 1 group D member 1 (Homo sapiens); test: modulators of Rev-erb alpha DNA binding, dose response, biochemical, FITC-DNA, fluorescence polarization (AID 1259321)
Active and inactive are the calls of the source.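 The calls were made as follows: active = half-maximal concentration for changing protein binding to DNA, from the fitted dose curve, below 10 micromolar; inactive = the rest.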
Allowed answers: active, inactive

See these solved cases before continuing.
* NS(=O)(=O)c1ccc(CNC(=O)c2cc(-c3cccnc3)nc3ccc(Br)cc23)cc1 | active
* CCN(CC)c1ccc(/C=C(\C#N)C(N)=S)cc1 | inactive
* CCCCCc1nc2c(c(=O)c3ccccc3n2C)c(=O)n1Cc1ccc(OC)cc1 | active
* CN(C)c1ccc(C=Cc2nccc3ccccc23)cc1 | inactive
* CC1(C)Cc2nc3sc4c(SCC(=O)NC(c5ccccc5)c5ccccc5)ncnc4c3cc2CO1 | inactive
* Cc1ccc2c(c1C)NC(=O)CC(c1ccccc1O)=N2 | inactive

Q: Can you look up the reported call for COC(=O)Cn1c(=NC(=O)c2nc3ccccc3s2)sc2cc(S(C)(=O)=O)ccc21 for me?
A: active

Q: Can you look up the reported call for O=C(NCc1cccc(F)c1)c1cccc2c1C(=O)c1ccc(N3CCOCC3)cc1S2(=O)=O for me?
A: active

Q: Can you look up the reported call for COc1ccc(NC(=O)NNC(=O)COc2ccc3cc(Br)ccc3c2)cc1OC for me?
A: active

Q: Can you look up the reported call for O=C(CCCC(=O)OCC(=O)c1cccs1)Nc1ccc(Oc2ccccc2)cc1 for me?
A: inactive

###

target: Nuclear receptor subfamily 1 group D member 1 (Homo sapiens); experiment: modulators of Rev-erb alpha DNA binding, dose response, biochemical, FITC-DNA, fluorescence polarization (AID 1259321)
Activity calls are given as the source filed them.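 Rule for the calls: active = half-maximal concentration for changing protein binding to DNA, from the fitted dose curve, below 10 micromolar; inactive = the rest.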
Allowed answers: active, inactive

See these solved cases before continuing.
- COc1ccc(N2C(=O)c3cccc4c(N(C)CCO)ccc(c34)C2=O)cc1: inactive
- C/C(=N\N(Cc1ccccc1)c1ccccc1)c1ccncc1: active
- C=CCNc1nc(NCc2ccc(NC(C)=O)cc2)c2sc(-c3ccccc3)cc2n1: active
- CCOC(=O)C1CCCN(c2ccc([N+](=O)[O-])c3nonc23)C1 (configuration not stated): inactive
- COc1cc(OC)cc(-c2c(Sc3ccccc3)c3cc(-c4ccc(OC)c(F)c4)ccc3n2C)c1: active
- CCCCCOc1ccc(NC(=O)CSc2cccc3cccnc23)cc1: active
- CCc1cc2cc(C)ccc2nc1SCC(=O)NC1CCCC1: active
- O=C(CSc1nc2ccccc2c(=O)n1-c1ccc(F)cc1)Nc1ccc(Cl)c(S(=O)(=O)N2CCOCC2)c1: active
- CCOc1ccccc1-c1nc(-c2ccc(NC(=O)Cc3ccc(OC)cc3)cc2)no1: active
- CCOc1ccccc1NC(=O)c1cnc2n(c1=O)CCS2: inactive

Q: Can you look up the reported call for CCOc1ccccc1NC(=O)CSC1=C(C#N)C(c2ccco2)C(C(=O)Nc2nc3ccccc3s2)=C(C)N1 (configuration not stated) for me?
A: active

Q: Can you look up the reported call for COC(=O)c1cccc(Cn2ccc3ccc(-c4ccc5ccn(C(=O)c6cccc(OC)c6)c5c4)cc32)c1 for me?
A: inactive

Q: Can you look up the reported call for COc1ccc(C(=O)Nc2ccc(C(F)(F)F)n(C)c2=O)cc1 for me?
A: inactive

Q: Can you look up the reported call for COc1ccccc1NC(=O)CSc1nc(N)c(C#N)cc1C#N for me?
A: inactive

Q: Can you look up the reported call for O=C(/C=C/c1cccc2ccccc12)NCCC1=CCCCC1 for me?
A: inactive

Q: Can you look up the reported call for COc1ccc(C(=O)NCCNc2nc3cc(C)cc(C)c3cc2C#N)nc1 for me?
A: inactive

Q: Can you look up the reported call for COc1cc2c3nnc(-c4ccc(F)cc4)c-3cn(Cc3ccccc3)c2cc1OC for me?
A: inactive

Q: Can you look up the reported call for Cc1cc(C)c2cc(C#N)c(SCC(=O)Nc3ccc4c(c3)OCO4)nc2c1 for me?
A: active

Q: Can you look up the reported call for CSc1ccccc1-c1nnc(-c2ccc(Cl)c(Cl)c2)o1 for me?
A: active

Q: Can you look up the reported call for N#Cc1c(-c2ccc(F)cc2)cc(C2CC2)nc1SCC(=O)c1cccs1 for me?
A: inactive

Q: Can you look up the reported call for CC(C)CC[n+]1ccccc1/C=C/c1ccc(N(C)C)cc1 for me?
A: inactive

Q: Can you look up the reported call for O=C(Nc1ccccc1)c1cc2c(=O)c3ccccc3oc2nc1C(F)(F)F for me?
A: active
